Consider the following binders; for each one, report its IC50 (SHP-1 recruitment blocking).
molecular target: Full length human SIRPα v1 with beta-gal fragment (ED) at its C-terminal, in K562 cells (human, UniProt P78324 31-504); test: cell-based or functional assay
Sequence (P78324 31-504): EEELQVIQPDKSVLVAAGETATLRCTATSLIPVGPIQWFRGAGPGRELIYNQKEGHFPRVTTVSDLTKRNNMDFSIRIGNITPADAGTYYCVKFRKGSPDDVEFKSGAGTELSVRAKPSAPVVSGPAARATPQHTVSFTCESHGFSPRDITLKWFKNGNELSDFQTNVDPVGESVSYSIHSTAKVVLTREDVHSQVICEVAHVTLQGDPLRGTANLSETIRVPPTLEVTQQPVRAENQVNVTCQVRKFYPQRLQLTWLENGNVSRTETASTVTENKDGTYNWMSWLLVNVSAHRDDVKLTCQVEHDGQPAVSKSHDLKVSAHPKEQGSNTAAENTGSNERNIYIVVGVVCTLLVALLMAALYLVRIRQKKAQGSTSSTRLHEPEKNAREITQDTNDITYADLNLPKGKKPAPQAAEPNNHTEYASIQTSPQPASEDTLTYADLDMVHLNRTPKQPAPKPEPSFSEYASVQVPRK
Give bare numbers, in pM.

Reference set (3 entries):
Anti-SIRPα antibody C25 (antibody, V domains shown, Mouse variable regions; also called 025c; 025) VH: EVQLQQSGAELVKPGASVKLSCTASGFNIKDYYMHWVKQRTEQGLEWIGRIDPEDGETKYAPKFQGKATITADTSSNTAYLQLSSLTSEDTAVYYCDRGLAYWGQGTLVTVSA VL: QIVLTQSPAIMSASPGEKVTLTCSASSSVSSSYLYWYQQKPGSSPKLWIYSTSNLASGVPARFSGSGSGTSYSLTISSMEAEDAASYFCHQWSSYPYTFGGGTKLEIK: 80
Humanized anti-SIRPα antibody hu025.033 (antibody, V domains shown, Humanized from C25) VH: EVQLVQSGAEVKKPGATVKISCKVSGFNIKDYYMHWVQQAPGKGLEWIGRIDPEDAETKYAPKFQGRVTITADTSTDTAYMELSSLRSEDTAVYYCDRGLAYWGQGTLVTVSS VL: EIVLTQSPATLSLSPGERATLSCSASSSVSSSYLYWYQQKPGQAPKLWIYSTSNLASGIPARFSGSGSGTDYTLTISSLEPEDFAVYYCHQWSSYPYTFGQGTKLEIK: 190
Humanized anti-SIRPα antibody hu025.059 (antibody, V domains shown, Humanized from C25) VH: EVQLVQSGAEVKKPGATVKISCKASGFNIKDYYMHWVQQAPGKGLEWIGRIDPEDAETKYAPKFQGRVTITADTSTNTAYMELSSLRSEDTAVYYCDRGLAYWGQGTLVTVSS VL: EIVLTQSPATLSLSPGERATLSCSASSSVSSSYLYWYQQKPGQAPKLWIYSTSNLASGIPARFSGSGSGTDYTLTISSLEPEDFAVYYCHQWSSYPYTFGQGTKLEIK: 100

Moving on to the next binder.
Prompt: Would you kindly share the measured IC50 (SHP-1 recruitment blocking) for Humanized anti-SIRPα antibody hu025.021 (antibody, V domains shown, Humanized from C25) VH: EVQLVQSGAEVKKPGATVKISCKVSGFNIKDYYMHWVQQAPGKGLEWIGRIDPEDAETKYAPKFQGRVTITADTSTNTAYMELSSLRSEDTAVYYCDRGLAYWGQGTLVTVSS VL: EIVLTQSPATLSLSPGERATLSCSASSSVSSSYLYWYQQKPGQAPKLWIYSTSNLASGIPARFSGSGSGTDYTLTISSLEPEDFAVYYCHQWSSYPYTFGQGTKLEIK ?
Response: 100
